Test system: DU-145 prostate
Assay: NCI-60 one-dose screen, 48 h
Conditions: 10 µM unless noted
Method: Cells are grown in 96 well plates and exposed to the test compound for 48 hours. Compounds are tested at a single concentration, which is 10^-5 M for most compounds. The reported endpoint is percent growth (GI% or GIPRCNT), where numbers from 0 - 100% represent growth inhibition, and numbers from -100% - 0 represent cell death. For example, a value of 40 represents 60% growth inhibition. A value of 0 means no net growth occurred over the course of the experiment. […]
This is part of a sample that, as a whole, favours compounds with a hit. Of some 83,000 tested, about 20% had one in any assay. Active and inactive are the calls of the source. How the source made its calls: active means growth percent below 10; inactive means the rest.
Outcome codes: label 1 = active, label 0 = inactive

{"columns": ["compound", "target_system", "category"],
 "data": [
  ["O=C1c2cccc(NCCN=Cc3cc(O)ccc3O)c2C(=O)c2c(NCCN=Cc3cc(O)ccc3O)cccc21", "DU-145 prostate", "label 1"],
  ["CC1(c2ccccc2O)NN=C(/N=C/c2cccc([N+](=O)[O-])c2)N1C(Cc1c[nH]c2ccccc12)C(=O)O (stereo not given)", "DU-145 prostate", "label 0"],
  ["Nc1ncnc2c1N=C(c1ccc(Cl)cc1)CC(c1ccc3c(c1)OCO3)N2 (stereo not given)", "DU-145 prostate", "label 0"],
  ["CC1=Nc2cnc(Nc3ccc(OCCN4CCCCC4)cc3)nc2Nc2ccccc21", "DU-145 prostate", "label 0"],
  ["C[C@]12CC[C@@H]3c4ccc(O)c([N+](=O)[O-])c4CC[C@H]3[C@@H]1CCC2=O", "DU-145 prostate", "label 0"],
  ["CN([O-])c1nc(N(C)[O-])nc(N2CCOCC2)n1.CN([O-])c1nc(N(C)[OH2+])nc(N2CCOCC2)n1.[Fe+3]", "DU-145 prostate", "label 0"],
  ["CC/C(=C(/c1ccc(Cl)cc1)c1ccc(OCCN2CCCC2)cc1)c1ccc(OC)cc1", "DU-145 prostate", "label 0"],
  ["CCN(c1ccc(Cl)cc1)c1nc(-c2ccc([N+](=O)[O-])cc2)cs1", "DU-145 prostate", "label 0"],
  ["CNC(=O)c1cc(Oc2ccc3c(c2)sc2nc(-c4cc(OC)c(OC)c(OC)c4)cn23)ccn1", "DU-145 prostate", "label 0"],
  ["CCOC(=O)c1cc(C(=O)c2cc(OC)c(OC)c(OC)c2)n2ccc(-c3ccncc3)cc12", "DU-145 prostate", "label 0"],
  ["C#CCOc1ccc2ncnc(Nc3ccc(NC(=O)CCl)cc3)c2c1", "DU-145 prostate", "label 0"],
  ["CCN(CC)CCOc1ccc(-c2c(-c3ccccc3)c(=O)oc3ccccc23)cc1", "DU-145 prostate", "label 0"],
  ["CN1CCN(C(=O)c2ccc(NC(=O)Nc3ccc(-c4nc(N5CCOCC5)c5cccn5n4)cc3)cc2)CC1", "DU-145 prostate", "label 1"],
  ["Cc1ccc(Cl)cc1Nc1nc(C(F)(F)F)ccc1C(=O)N/N=C/c1cccnc1", "DU-145 prostate", "label 0"],
  ["O=C(c1ccc(-c2ccccc2)cc1)c1ccc([N+](=O)[O-])cc1", "DU-145 prostate", "label 0"],
  ["COc1ccccc1NC(=O)Cn1cc(CN2CCN(c3ccnc4cc(Cl)ccc34)CC2)nn1", "DU-145 prostate", "label 0"],
  ["O=C(OCc1ccc2cccc(O)c2n1)N1CCN(C(=O)c2cc3cc(F)ccc3[nH]2)CC1", "DU-145 prostate", "label 1"],
  ["CCOC(=O)c1c(C)c2c(n1C)CSc1cc(C(=O)c3ccccc3)c(=O)[nH]c1-2", "DU-145 prostate", "label 0"],
  ["S=C1CCSC(=S)N1CCCN1C(=S)CCSC1=S", "DU-145 prostate", "label 0"],
  ["CC(C)=CCC[C@](C)(O)[C@H]1CC[C@]2(C)[C@@H]1CC[C@@H]1[C@@]3(C)Cc4nccnc4C(C)(C)[C@@H]3CC[C@]12C", "DU-145 prostate", "label 0"],
  ["CN(C)C1CCN(Cc2ccc(NC(=O)c3cncc(C#Cc4cnc(N)c5ncccc45)c3)cc2C(F)(F)F)CC1", "DU-145 prostate", "label 0"],
  ["Cc1cc2c([nH]1)CSc1cc(S(=O)(=O)c3ccccc3)c(=O)[nH]c1-2", "DU-145 prostate", "label 0"],
  ["O=C(Cn1c(-c2ccc([N+](=O)[O-])cc2)nc2ccccc21)NNC(=O)c1cccnc1", "DU-145 prostate", "label 0"],
  ["CCCCCCCCCCCCCCCCCCOc1ccccc1CC(=O)NCC[N+]1(C)CCCC1", "DU-145 prostate", "label 0"],
  ["CN[C@]12CC3(C=CC(=O)C=C3)O[C@@]1(Cc1ccc(OC)cc1)N(C)C(=O)N2", "DU-145 prostate", "label 0"],
  ["COC(=O)c1c2c(c[n+]([O-])c1C)C(=O)C(NCc1ccccc1)=CC2=O", "DU-145 prostate", "label 1"],
  ["CCN(CC)CCNC(=O)c1cn2ncnc(Oc3ccc(NC(=O)Nc4ccc(Cl)c(C(F)(F)F)c4)c(F)c3)c2c1C", "DU-145 prostate", "label 1"],
  ["O=[N+]([O-])c1ccc(N/N=C(/C(=N/Nc2ccc([N+](=O)[O-])cc2)c2ccccc2)c2ccccc2)cc1", "DU-145 prostate", "label 1"],
  ["Cc1cc2c(O)c(-c3cccc(Cl)c3)c3sc(=O)oc3c2cc1C", "DU-145 prostate", "label 0"],
  ["Fc1cc(F)cc(C(c2c[nH]c3ccccc23)c2c[nH]c3ccccc23)c1", "DU-145 prostate", "label 0"],
  ["COc1ccccc1Nc1nc2c(s1)C1=CC[C@H]3[C@@H]4CC[C@H]([C@H](C)CCCC(C)C)[C@@]4(C)CC[C@@H]3[C@@]1(C)CC2", "DU-145 prostate", "label 0"],
  ["COc1ccc2c(c1)[n+]([O-])c(C(=O)/C=C/C=C(\\Cl)c1cc(OC)c(OC)c(OC)c1)c(C)[n+]2[O-]", "DU-145 prostate", "label 0"],
  ["CC1(C)CC[C@]2(C(=O)O)CC[C@]3(C)C(=CC[C@@H]4[C@@]5(C)C/C(=C/O)C(=O)C(C)(C)[C@@H]5CC[C@]43C)[C@@H]2C1", "DU-145 prostate", "label 0"],
  ["Cc1ccccc1Cn1cnc2ccc(-c3cc(NC(=O)c4ccc(NC5CCN(C)CC5)cc4)n[nH]3)cc21", "DU-145 prostate", "label 0"],
  ["O=C(Nn1c2c(sc1=NCc1ccccc1)C(=O)c1ccccc1C2=O)c1cc2ccc1CCc1ccc(cc1)CC2", "DU-145 prostate", "label 0"]
]}

Source listed as PubChem BioAssay (NCI).
